- MEASUREMENT DESCRIPTION: Cytotoxicity against human CCD-986Sk cells assessed as cell viability incubated for 48 hrs by MTT assay
- Format: toxicity, cell-based
OUTCOME MEASURE: log10 of IC50 at 48 h (log10 of the value in µM)
Values below are the log10 of the recorded IC50 at 48 h, with µM as the unit.

Known results for compounds:
{"COMPOUND STRUCTURE STRING": "CC(=O)c1cc(Cl)ccc1OCc1cn(-c2ccc(S(N)(=O)=O)cc2)nn1", "log10 of IC50 at 48 h": 1.71}
{"COMPOUND STRUCTURE STRING": "NS(=O)(=O)c1ccc(-n2cc(COc3ccccc3C=O)nn2)cc1", "log10 of IC50 at 48 h": 1.98}
{"COMPOUND STRUCTURE STRING": "Cc1ccc(C(C)C)cc1OCc1cn(-c2ccc(S(N)(=O)=O)cc2)nn1", "log10 of IC50 at 48 h": 1.11}
{"COMPOUND STRUCTURE STRING": "CC(=O)c1ccccc1OCc1cn(-c2ccc(S(N)(=O)=O)cc2)nn1", "log10 of IC50 at 48 h": 2.14}
{"COMPOUND STRUCTURE STRING": "C=CCc1ccc(OCc2cn(-c3ccc(S(N)(=O)=O)cc3)nn2)c(OC)c1", "log10 of IC50 at 48 h": 2.13}
{"COMPOUND STRUCTURE STRING": "O=c1[nH]cc(F)c(=O)[nH]1", "log10 of IC50 at 48 h": 0.90}

List reported log10 of IC50 at 48 h for each of these compounds:
1. Cc1ccc(OCc2cn(-c3ccc(S(N)(=O)=O)cc3)nn2)c([N+](=O)[O-])c1
2. NS(=O)(=O)c1ccc(-n2cc(COc3ccc(C(=O)c4ccccc4)cc3)nn2)cc1

Response:
1: 1.41; 2: 1.18

###

- System: COLO 205
- MEASUREMENT DESCRIPTION: Cytotoxicity against human COLO 205 cells assessed as cell viability incubated for 48 hrs by MTT assay
- Assay type: functional, cell-based
- CONDITION NOTES: COLO 205, 48 h
pIC50: −log10 of the molar value.
OUTCOME MEASURE: pIC50

{"COMPOUND STRUCTURE STRING": "CCN(CC)c1ccc(C=O)c(OCc2cn(-c3ccc(S(N)(=O)=O)cc3)nn2)c1", "TEST SYSTEM": "COLO 205", "OUTCOME MEASURE": "pIC50", "MEAS VALUE": 3.83}
{"COMPOUND STRUCTURE STRING": "NS(=O)(=O)c1ccc(-n2cc(COc3ccc4ccccc4c3C=O)nn2)cc1", "TEST SYSTEM": "COLO 205", "OUTCOME MEASURE": "pIC50", "MEAS VALUE": "< 3.70"}
{"COMPOUND STRUCTURE STRING": "NS(=O)(=O)c1ccc(-n2cc(COc3ccc(Br)cc3C=O)nn2)cc1", "TEST SYSTEM": "COLO 205", "OUTCOME MEASURE": "pIC50", "MEAS VALUE": "< 3.70"}
{"COMPOUND STRUCTURE STRING": "NS(=O)(=O)c1ccc(-n2cc(COc3cccc(C=O)c3)nn2)cc1", "TEST SYSTEM": "COLO 205", "OUTCOME MEASURE": "pIC50", "MEAS VALUE": 4.39}
{"COMPOUND STRUCTURE STRING": "NS(=O)(=O)c1ccc(-n2cc(COc3ccc(C(=O)c4ccccc4)cc3)nn2)cc1", "TEST SYSTEM": "COLO 205", "OUTCOME MEASURE": "pIC50", "MEAS VALUE": "< 3.70"}

List reported pIC50 for each of these molecules:
1. Cc1ccc(C(C)C)c(OCc2cn(-c3ccc(S(N)(=O)=O)cc3)nn2)c1
2. C=CCc1ccc(OCc2cn(-c3ccc(S(N)(=O)=O)cc3)nn2)c(OC)c1
3. COc1cccc(C=O)c1OCc1cn(-c2ccc(S(N)(=O)=O)cc2)nn1

Response:
1. < 3.70
2. < 3.70
3. < 3.70

List reported pIC50 for each of these molecules:
1. Cc1ccc(C(C)C)cc1OCc1cn(-c2ccc(S(N)(=O)=O)cc2)nn1
2. CC(=O)c1cc(Cl)ccc1OCc1cn(-c2ccc(S(N)(=O)=O)cc2)nn1

Response:
< 3.70
< 3.70
